Assay: small-molecule microarray binders of probe aCHRDL2, primary screen, biochemical, biotinylated probe, 635/667 nm fluorescence (AID 1100)
Conditions: higher = more signal
measured-parameter: composite z-score
Give bare numbers.

molecule | composite z-score
NC(=O)[C@@H]1[C@H]2C(=O)O[C@H](c3ccccc3)[C@H](c3ccccc3)N2[C@H](c2ccc(O)cc2)[C@@]12C(=O)Nc1ccc(C#CC3(O)CCCCCC3)cc12 | 0.523
C[N+](C)(C)CCCCNC(=O)[C@H]1C[C@H]2C(=O)N[C@@H](Cc3ccccc3)C(=O)N2[C@H]1c1ccc(O)cc1 | -0.0505
COc1ccc(C(=O)Nc2cccc(CN3C(=O)[C@]4(O[C@H](CCO)[C@@H]([Si](C)(C)c5ccc(OC)cc5)[C@@H]4C)c4ccccc43)c2)cc1 | 0.223

Below are 3 molecules. Give each one its composite z-score.
1. COCCOC(=O)N1C(=O)[C@@]2(c3cc(C#CC4(O)CCCCCC4)ccc31)[C@H](c1ccc(O)cc1)N1[C@H](c3ccccc3)[C@H](c3ccccc3)OC(=O)[C@H]1[C@@H]2C(=O)Nc1nc2ccccc2s1
2. O=C1[C@H]2C=C(Br)[C@H](C[C@@H]2c2ccccc2)[C@@]12CO2
3. [N-]=[N+]=NCc1ccccc1C[C@@]1(C(=O)NCC(O)CO)N=C(c2ccc(OCCCO)cc2)O[C@@H]1c1ccccc1N=[N+]=[N-] (stereo partly specified)

*A*
0.784
-0.261
1.38

* * *

Experiment: HepG2 liver cancer cell viability effects, profiling panel, resazurin fluorescence, 24 h, PK04 Diversity Set (AID 1172); note: test concentration not given here
Settings: higher = more signal
Hi there, I'd appreciate the recorded z-score for every entry that follows.
Give bare numbers.

Below are 6 molecules. Give each one its z-score.
1. O=C1O[C@@H](c2ccccc2)[C@@H](c2ccccc2)N2[C@@H](c3ccccc3OCCO)[C@]3(C(=O)Nc4ccc(C#CC5=CCCCC5)cc43)[C@@H](C(=O)Nc3nc4ccccc4s3)[C@H]12
2. CN(C)CCCC[C@@H]1NC(=O)[C@H]2C[C@@H](C(=O)NCCCCCNC(=O)CS)[C@@H](c3cccc(OCCO)c3)N2C1=O
3. COc1ccc(C(=O)Nc2ccc(CN3C(=O)[C@@]4(O[C@@H](CCn5cc([C@H](O)c6ccccc6)nn5)[C@H]([Si](C)(C)c5ccc(OC)cc5)[C@H]4C)c4ccccc43)cc2)cc1
4. CCN(CC)c1ccc(N2CC=CC34O[C@@H]5/C=C\CCC(C)OC(=O)C5[C@H]3C(=O)N(C(CO)C(C)C)[C@@H]4C2=O)cc1 (stereo partly specified)
5. CC(C)(C)OC(=O)CC[C@@]1(C(=O)NCC(O)CO)N=C(c2ccc(OCCCO)cc2)O[C@@H]1c1ccccc1N=[N+]=[N-] (stereo partly specified)
6. COc1ccc([Si](C)(C)[C@H]2[C@H](CC(=O)N3CCC[C@H]3CO)O[C@@]3(C(=O)N(Cc4cccc(N5C(=O)c6cccc7cccc5c67)c4)c4ccccc43)[C@@H]2C)cc1

*A*
1. 0.482
2. 0.373
3. -1.44
4. -0.364
5. 0.486
6. -1.13

* * *

Hi there, I'd appreciate the recorded composite z-score for every entry that follows.
Molecular target: Streptavidin (Streptomyces avidinii) (UniProt P22629)
Sequence (P22629 whole entry, looked up): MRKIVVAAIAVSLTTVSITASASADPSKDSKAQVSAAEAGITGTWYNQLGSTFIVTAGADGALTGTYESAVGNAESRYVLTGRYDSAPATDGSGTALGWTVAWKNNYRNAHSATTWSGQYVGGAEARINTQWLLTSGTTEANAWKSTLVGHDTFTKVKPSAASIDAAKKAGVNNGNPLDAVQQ
Experiment: streptavidin binders on small-molecule microarray, primary screen, artefact control for SMM compound annotation, biophysical, 635/667 nm fluorescence (AID 1147);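 note: signal reflects streptavidin binding to arrayed compounds as a control protein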
Settings: streptavidin binding, higher = more signal
One number for each entry.

As a guide, the following entries are already answered.
compound | experimental-target | composite z-score
C=CCC(OC(C)=O)[C@@H]1[C@@H](N(Cc2ccc(-c3cccc(C(F)(F)F)c3)o2)C(=O)c2ccc(-c3ccccc3)cc2)c2cc(OCCCO)ccc2N1C(=O)c1ccc(-c2ccccc2)cc1 (stereo not given in full) | Streptavidin (Streptomyces avidinii) (UniProt P22629) | 0.0998
COc1ccc([Si](C)(C)[C@@H]2[C@@H](CCO)O[C@]3(C(=O)N(Cc4ccc(N5C(=O)COc6ccccc65)cc4)c4ccccc43)[C@H]2C)cc1 | Streptavidin (Streptomyces avidinii) (UniProt P22629) | 0.636
CCN(CC)c1ccc(N2CC=CC34O[C@@H]5/C=C\CCC(C)OC(=O)C5[C@H]3C(=O)N(C(CO)C(C)C)[C@@H]4C2=O)cc1 (stereo not given in full) | Streptavidin (Streptomyces avidinii) (UniProt P22629) | -0.826
C=C(CCCC)C(=O)CC[C@H](OC(=O)c1cccnc1)c1ccccc1OCCO | Streptavidin (Streptomyces avidinii) (UniProt P22629) | -0.423
C[C@@]1([C@@H](NC(=O)c2ccccc2)c2ccc(-c3ccccc3)cc2)C[C@H]1C1CCCCC1 | Streptavidin (Streptomyces avidinii) (UniProt P22629) | 1.1
O=C1c2ccccc2[C@@]2(Cc3ccccc3N(CCN3CCOCC3)C2=O)[C@H](c2ccc(CO)cc2)N1Cc1ccccc1 | Streptavidin (Streptomyces avidinii) (UniProt P22629) | -0.383

Below are 6 compounds. Give each one its composite z-score.
1. COc1ccc([C@H]2OC[C@@H]3CC4(CC=CC4)C(=O)N32)cc1
2. COc1ccc(C#Cc2ccc3c(c2)[C@]2(C(=O)N3)[C@H](c3ccccc3OCCO)N3[C@H](c4ccccc4)[C@H](c4ccccc4)OC(=O)[C@H]3[C@@H]2C(=O)O)cc1
3. O=C1c2ccccc2[C@](Cc2ccccc2I)(C(=O)NC2CC2)[C@H](c2ccc(CO)cc2)N1C1CCCCC1
4. O=C1OCC=C[C@H]2OC34C=CCN(CCN5CCOCC5)C(=O)[C@H]3N(CCCO)C(=O)[C@@H]4[C@@H]12 (stereo not given in full)
5. C=C(CCCC)C(=O)CC[C@H](OC(C)=O)c1cccc(OCCO)c1
6. C=CCNC(=O)[C@H]1[C@@H]2C(=O)O[C@@H](c3ccccc3)[C@@H](c3ccccc3)N2[C@@H](c2ccc(O)cc2)[C@]12C(=O)N(C(=O)OCCOC)c1ccc(C#CCNC(N)=O)cc12

*A*
0.193
1.45
1.05
0.212
-0.613
-0.231

Below are 3 compounds. Give each one its composite z-score.
1. COCCCNC(=O)[C@@]1(Cc2ccccc2N=[N+]=[N-])N=C(c2ccc(OCCCO)cc2)O[C@H]1c1ccccc1N=[N+]=[N-]
2. COc1ccc(CCNC(=O)[C@@]2(Sc3ccc(C)cc3)CC(=O)N(C3CCCCC3)[C@@H]2c2ccc(CO)cc2I)cc1
3. O=C(O)[C@@]1(CCS(=O)(=O)c2ccccc2)COC(c2ccc(OCCCO)cc2)=N1

*A*
1. 1.14
2. 0.422
3. -0.439
